B1: DNA replication regulator protein HobA (Helicobacter pylori), O25828 (parent)
chain: MKNFYDWIKEFVRDQGEFIAQQSGWLELERSSYAKLIAQTISHVLNGGSLLVSADSSRHWFLNYILSNLNPKDLKERPLLSVIDFNASSFYPKNDANLSLATIEMTYQNPMFWHVGKIENEGLKTILLSKIPSFLWLFEELKEDCLLLKEHDSLLDYKLLQLFKLFENALFSVLYNKVTL
partner: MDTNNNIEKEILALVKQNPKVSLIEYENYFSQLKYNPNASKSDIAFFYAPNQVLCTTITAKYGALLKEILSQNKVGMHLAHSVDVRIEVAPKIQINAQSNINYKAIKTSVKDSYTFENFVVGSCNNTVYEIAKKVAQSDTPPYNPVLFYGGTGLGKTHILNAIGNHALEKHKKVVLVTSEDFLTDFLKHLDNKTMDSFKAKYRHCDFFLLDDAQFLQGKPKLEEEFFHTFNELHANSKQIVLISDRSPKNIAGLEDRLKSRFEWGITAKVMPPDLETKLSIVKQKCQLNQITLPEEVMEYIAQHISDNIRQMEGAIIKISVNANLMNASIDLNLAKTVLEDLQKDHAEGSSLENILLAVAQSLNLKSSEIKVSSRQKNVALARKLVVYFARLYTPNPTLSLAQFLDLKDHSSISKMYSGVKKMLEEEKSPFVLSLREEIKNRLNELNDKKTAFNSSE

Variants of: B1
Conditions: with dnaa_helpy dnaA
TEST READOUT: effect of a mutation on the interaction

Please review the entries below; each comes with its answer.
S67P
disrupting interaction
I83M
decreasing interaction
I118T
disrupting interaction
L45P
disrupting interaction
V115D
disrupting interaction
D55G
disrupting interaction
R77C
decreasing interaction
L51F
decreasing interaction

Lookup: Return reported effect of a mutation on the interaction; argument: M111V
Found: decreasing interaction

Lookup: Return reported effect of a mutation on the interaction; argument: F112S
Found: disrupting interaction

Lookup: Return reported effect of a mutation on the interaction; argument: F61C
Found: disrupting interaction

Lookup: Return reported effect of a mutation on the interaction; argument: H43R
Found: disrupting interaction

Lookup: Return reported effect of a mutation on the interaction; argument: V82A
Found: decreasing interaction

Lookup: Return reported effect of a mutation on the interaction; argument: L141P
Found: disrupting interaction

Lookup: Return reported effect of a mutation on the interaction; argument: L174P
Found: disrupting interaction

Lookup: Return reported effect of a mutation on the interaction; argument: Y107H
Found: decreasing interaction

Lookup: Return reported effect of a mutation on the interaction; argument: I41T
Found: disrupting interaction

Lookup: Return reported effect of a mutation on the interaction; argument: L128P
Found: disrupting interaction

Lookup: Return reported effect of a mutation on the interaction; argument: E119G
Found: disrupting interaction

Lookup: Return reported effect of a mutation on the interaction; argument: S99P
Found: decreasing interaction

Reference for the values: IntAct's records for PubMed 19940251
